Target: Cannabinoid receptor 2 (Mus musculus)
Sequence (P47936 whole entry): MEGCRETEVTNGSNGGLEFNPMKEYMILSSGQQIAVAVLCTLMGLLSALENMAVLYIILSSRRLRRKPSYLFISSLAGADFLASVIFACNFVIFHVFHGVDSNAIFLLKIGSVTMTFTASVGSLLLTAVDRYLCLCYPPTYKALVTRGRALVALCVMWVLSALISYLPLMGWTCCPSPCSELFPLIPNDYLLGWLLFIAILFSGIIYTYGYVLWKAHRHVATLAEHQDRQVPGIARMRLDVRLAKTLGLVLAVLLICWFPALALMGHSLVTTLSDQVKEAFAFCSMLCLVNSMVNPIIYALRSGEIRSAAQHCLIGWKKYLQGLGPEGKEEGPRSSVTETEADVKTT
Flag rule - Ki less than 10 nM flags rule met; the remaining entries get rule not met.

* CCCC(C)(C)c1ccc2c(c1)OC(C)(C)[C@@H]1CC=C(C)C[C@@H]21 | rule not met
* Cc1ccc2c(=O)c(C(=O)NC3CCCCCC3)cn(Cc3ccccc3)c2n1 | rule met
* Cc1ccc2c(=O)c(C(=O)NC3CCCCC3)cn(CCN3CCN(c4ccccc4)CC3)c2n1 | rule not met
* O=C(NC1CCCCC1)c1cn(Cc2ccccc2F)c2nc(Cl)ccc2c1=O | rule not met
* Cc1ccc2c(=O)c(C(=O)NC3CCCCCC3)cn(Cc3ccccc3F)c2n1 | rule not met
* Cc1ccc2c(n1)N(Cc1ccccc1)CC(C(=O)NC1CCCCC1)C2O (stereo not drawn) | rule not met
* O=C(NC1CCCCC1)c1cn(Cc2ccccc2)c2ccccc2c1=O | rule met

# ---- query compound ----
**Query** Find out if reported Ki for COc1ccc(Cn2cc(C(=O)NC3CCCCC3)c(=O)c3ccc(C)nc32)cc1 is less than 10 nM
**Result** rule not met

These data points were gathered from ChEMBL document CHEMBL1137375.
